# study-target: ITK (Homo sapiens)
# Construct: purchased Signalchem I13-11G-10
# Sequence (Q08881 1-620): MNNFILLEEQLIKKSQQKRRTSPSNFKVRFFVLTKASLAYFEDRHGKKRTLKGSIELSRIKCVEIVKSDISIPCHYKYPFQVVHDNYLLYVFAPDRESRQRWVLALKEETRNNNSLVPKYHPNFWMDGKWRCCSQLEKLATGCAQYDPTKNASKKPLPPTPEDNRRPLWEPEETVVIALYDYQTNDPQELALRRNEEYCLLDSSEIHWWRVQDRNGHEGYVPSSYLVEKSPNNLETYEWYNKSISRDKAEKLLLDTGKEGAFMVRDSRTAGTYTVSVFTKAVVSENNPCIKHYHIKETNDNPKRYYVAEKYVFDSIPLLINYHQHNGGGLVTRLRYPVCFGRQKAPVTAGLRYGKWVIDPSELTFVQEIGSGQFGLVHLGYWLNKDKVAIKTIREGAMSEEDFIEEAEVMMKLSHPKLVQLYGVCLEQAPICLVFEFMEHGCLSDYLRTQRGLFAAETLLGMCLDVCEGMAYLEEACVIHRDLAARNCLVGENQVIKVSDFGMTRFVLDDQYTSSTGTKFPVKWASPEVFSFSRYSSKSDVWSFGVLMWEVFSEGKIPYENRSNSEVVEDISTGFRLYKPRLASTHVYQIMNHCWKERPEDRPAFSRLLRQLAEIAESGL
# assay-text: Inhibitory activity against ITK, ADP-Glo Kinase system (Promega)
# Assay type: biochemical
# condition-notes: Km ATP (ITK: 25uM); read-out: ITK IC50(nM) Km ATP
Listed here are molecules together with their documented IC50.

These solved cases illustrate the format of a correct answer.
- molecule: "C=CC(=O)N1C2C=C(c3nc(Nc4ncc(C)s4)cc4c3ccn4C(C)C)CC1CC2 (centres unmarked) [Example 29]"
  IC50: "≤ 20 nM"
- molecule: "C=CC(=O)N1CC=C(c2nc(Nc3ncc(C)s3)cc3c2ccn3CCC(C)(C)C)CC1 [Example 18]"
  IC50: "≤ 20 nM"
- molecule: "C=CC(=O)N1CC=C(c2nc(Nc3cc(C)ccn3)cc3c2ccn3C(C)C)CC1 [Example 49]"
  IC50: "20 to 100 nM"
- molecule: "C=CC(=O)N1CCC=C(c2nc(Nc3ncc(C)s3)cc3c2ccn3C(C)C)CC1 [Example 26]"
  IC50: "≤ 20 nM"
- molecule: "C=CC(=O)N1CC=C(c2nc(Nc3nnc(C)s3)cc3c2ccn3C(C)C)CC1 [Example 41]"
  IC50: "> 500 nM"

Read the entry C=CC(=O)N1CC=C(c2nc(Nc3ncc(C)s3)cc3c2ccn3C2CCCC2)CC1 [Example 5] and write its reported IC50.
≤ 20 nM

Read the entry C=CC(=O)N1C2C=C(c3nc(Nc4ncc(C)s4)cc4c3ccn4C3CC3(F)F)CC1CC2 (centres unmarked) [Example 31] and write its reported IC50.
≤ 20 nM

Read the entry C=CC(=O)N1CC[C@H](Oc2nc(Nc3ncc(C)s3)cc3c2ccn3CCCC)C1 [Example 124] and write its reported IC50.
≤ 20 nM

Read the entry C=CC(=O)N1CC=C(c2nc(Nc3ncc(C)s3)cc3c2ccn3CC2CCCCC2)CC1 [Example 9] and write its reported IC50.
≤ 20 nM

Read the entry C=CC(=O)N1CC[C@H](Oc2nc(Nc3ncc(C)s3)cc3c2ccn3Cc2ccccn2)C1 [Example 117] and write its reported IC50.
≤ 20 nM

---

# study-target: ITK (Homo sapiens, UniProt Q08881)
# Construct: purchased Signalchem I13-11G-10
# assay-text: Inhibitory activity against ITK, ADP-Glo Kinase system (Promega)
# Assay type: biochemical
# condition-notes: 1mM ATP; read-out: ITK IC50(nM) 1mM ATP
Listed here are compounds together with their documented IC50.

- compound: "C=CC(=O)N1CC[C@H](Oc2nc(Nc3cc(C)ncn3)cc3c2ccn3CC(C)C)C1"
  study-target: "ITK (Homo sapiens, UniProt Q08881)"
  IC50: "20 to 100 nM"
- compound: "C=CC(=O)N1C2C=C(c3nc(Nc4ncc(C)s4)cc4c3ccn4CC(F)F)CC1CC2 (stereo not drawn)"
  study-target: "ITK (Homo sapiens, UniProt Q08881)"
  IC50: "20 to 100 nM"
- compound: "C=CC(=O)N1CCC2(CCC(Oc3nc(Nc4ncc(C)s4)cc4c3ccn4CC(C)C)C2)C1 (stereo not drawn)"
  study-target: "ITK (Homo sapiens, UniProt Q08881)"
  IC50: "> 500 nM"
- compound: "C=CC(=O)N1CCCCC12CC(Oc1nc(Nc3ncc(C)s3)cc3c1ccn3CC(C)C)C2 (stereo not drawn)"
  study-target: "ITK (Homo sapiens, UniProt Q08881)"
  IC50: "> 500 nM"
- compound: "C=CC(=O)Nc1cc(-c2nc(Nc3ncc(C)s3)cc3c2ccn3CC(F)(F)F)c(F)cc1F"
  study-target: "ITK (Homo sapiens, UniProt Q08881)"
  IC50: "20 to 100 nM"

Read the entry "C=CC(=O)N1C[C@H](F)[C@H](Oc2nc(Nc3ncc(C)s3)cc3c2ccn3[C@@H](C)CC)C1" and write its reported IC50.
≤ 20 nM

---

Listed here are compounds together with their documented IC50.
# study-target: ITK (Homo sapiens)
# Construct: purchased Signalchem I13-11G-10
# assay-text: Inhibitory activity against ITK, ADP-Glo Kinase system (Promega)
# Format: biochemical
# condition-notes: Km ATP (ITK: 25uM); read-out: ITK IC50(nM) Km ATP
# Description: Inhibitory activities against BTK and ITK were measured for the compounds prepared in the above Examples as follows. The inhibitory activities against BTK and ITK were evaluated using 'ADP-Glo™ Kinase system' (Promega Corporation). In the case of this evaluation method, activation was measured by quantifying the amount of ADP produced during the kinase reaction, which was utilized to measure the inhibitory activities against BTK and ITK. […]

These solved cases illustrate the format of a correct answer.
- smiles-entry: "C=CC(=O)N1CC=C(c2nc(Nc3ncc(C)s3)cc3c2ccn3CC2(C(F)(F)F)CC2)CC1"
  IC50: "≤ 20 nM"
- smiles-entry: "C=CC(=O)Nc1c(F)ccc(-c2nc(Nc3ncc(C)s3)cc3c2ccn3C)c1F"
  IC50: "≤ 20 nM"
- smiles-entry: "C=CC(=O)N1CC=C(c2nc(Nc3ncc[nH]3)cc3c2ccn3C)CC1"
  IC50: "> 500 nM"

Now take the following compound into account.
Read the entry "C=CC(=O)Nc1cc(-c2nc(Nc3ncc(C)s3)cc3c2ccn3CC(C)C)c(F)cc1F" and write its reported IC50.
≤ 20 nM
